Please respond with reported pKd for every item in the list.
Biological target: T1, recombinant human sc-uPA (human, UniProt P00749 21-431)
T1 construct: 411 amino acid single-chain zymogen expressed in HEK293; the 20-residue signal peptide is not present in the mature protein; also called human single-chain uPA; pro-uPA
Assay: SPR, mAb immobilised
Numbers only, as −log10 of the molar value.

Binder	Measure	Obs value
rec0266-0000-0010-VH_D98Y (antibody, mouse IgG1, V domains shown) VH: DVKLVESGGGLVKPGGSLKLSCVASGFTFSSYTMSWVRQTPEKRLEWVATISGGGSHIYYADSVKGRFTISRDNAKNTLYLQMSSLKSEDTAIYYCTRDGRYGSWFAYWGQGTLVTVSA VL: DIVMTQSPATLSVTPGDRVSLSCRTSQSIGDYLHWYQQKSHESPRLLIKYVSQSISGIPSRFSGSGSGSDFTLSINSVESEDVGVYYCQNSHSFPLTFGSGTKLELKR	pKd	8.74
rec0266-0000-0010-VH_G96F (antibody, mouse IgG1, V domains shown) VH: DVKLVESGGGLVKPGGSLKLSCVASGFTFSSYTMSWVRQTPEKRLEWVATISGGGSHIYYADSVKGRFTISRDNAKNTLYLQMSSLKSEDTAIYYCTRDFRDGSWFAYWGQGTLVTVSA VL: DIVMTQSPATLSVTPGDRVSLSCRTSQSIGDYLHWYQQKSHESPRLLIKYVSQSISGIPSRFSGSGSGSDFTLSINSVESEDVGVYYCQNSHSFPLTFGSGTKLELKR	pKd	8.14

Kindly review the next binder as well.
### Prompt Request the reported pKd associated with rec0266-0000-0010-VH_D98A (antibody, mouse IgG1, V domains shown) VH: DVKLVESGGGLVKPGGSLKLSCVASGFTFSSYTMSWVRQTPEKRLEWVATISGGGSHIYYADSVKGRFTISRDNAKNTLYLQMSSLKSEDTAIYYCTRDGRAGSWFAYWGQGTLVTVSA VL: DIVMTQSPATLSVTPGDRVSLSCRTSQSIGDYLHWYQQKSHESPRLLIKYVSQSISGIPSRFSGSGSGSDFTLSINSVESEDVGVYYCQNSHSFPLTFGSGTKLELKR
### Response 9.02
